List of % animals showing increased analgesia values.
# Test system: ICR male mice
# experiment: Tail flick model for acute peripheral pain, i.p.
# Format: in vivo, mouse
# protocol-conditions: 10 mg/kg i.p., 330 minutes (five and a half hours)
Value expressed in %; do not type the unit.

>  <molecule>
CCCCCCC(C)(C)c1cc(O)c([C@H]2CC(=O)[C@H]3C[C@@H]2C3(C)C)c(OC(=O)CCC(=O)O)c1

>  <unit-label>
%

>  <% animals showing increased analgesia>
100

$$$$

molecule CCCCCCC(C)(C)c1cc(O)c(C2CC(=O)C3CC2C3(C)C)c(O)c1 (single isomer, unassigned; (-)) , % animals showing increased analgesia observed: 80

====

# test-target: human CB2 receptor (Homo sapiens)
# experiment: Adenylylcyclase assay: forskolin-activated cAMP in CB2 transfected HEK-293 cells
# Assay type: cell-based
# protocol-conditions: HEK293, read-out: % inhibition at 1 μM; CB2 receptor transfected HEK-293, 1 μM forskolin
reported-endpoint: inhibition at 1 µM (%)
Value expressed in %; do not type the unit.

>  <compound>
CCCCCCC(C)(C)c1cc(OC(=O)CCC(=O)O)c([C@H]2CC(=O)[C@H]3C[C@@H]2C3(C)C)c(OC(=O)CCC(=O)O)c1

>  <inhibition at 1 µM [%]>
58

$$$$
>  <compound>
CCCCCCC(C)(C)c1cc(O)c(C2CC(=O)C3CC2C3(C)C)c(O)c1 (single isomer, unassigned; (-))

>  <inhibition at 1 µM [%]>
63

$$$$
>  <compound>
CCCCCCC(C)(C)c1cc(O)c([C@H]2CC(=O)[C@H]3C[C@@H]2C3(C)C)c(OC(=O)CCC(=O)O)c1

>  <inhibition at 1 µM [%]>
64

$$$$
>  <compound>
CCCCCCC(C)(C)c1cc(O)c2c(c1)OC(C)(C)[C@@H]1CC=C(CO)C[C@@H]21 [HU-210, reference compound]

>  <inhibition at 1 µM [%]>
50

$$$$

Lab entry: human CB2 receptor (Homo sapiens) assay, compound CCCCC(C)(C)c1cc(O)c(C2CC(=O)C3CC2C3(C)C)c(O)c1 (single isomer, unassigned; (-)) , inhibition at 1 µM = 33

====

# Test system: PGE2 secretion from activated RAW 264.7 macrophages
# experiment: Inhibition of PGE2 in LPS activated macrophages (ELISA)
# Format: cell-based, mouse
# protocol-conditions: 4 hours after activation, doses 1 μM to 20 μM
# Experimental: The technique used to quantify the amount of a given protein in a liquid sample, either tissue culture supernatant or body fluid, is based on Enzyme Linked ImmunoSorbent Assay (ELISA) methodology. […] The reaction is stopped and reading is performed in a spectrophotometer at the appropriate wavelength. […] Concentration of the protein in the sample is calculated from the standard curve. […]
reported-endpoint: IC50 (µM)
Value expressed in µM; do not type the unit.

compound CCCCC(C)(C)c1cc(O)c(C2CC(=O)C3CC2C3(C)C)c(OC(=O)CCC(=O)O)c1 (single isomer, unassigned; (-)) , IC50 observed: 7

====

# test-target: human CB2 receptor (Homo sapiens)
# experiment: biochemical
# Assay type: binding
# Parameters: purchased Perkin Elmer/NEN; host or cells: CHO cells, stably transfected (membranes)
# protocol-conditions: IC50 CB1/IC50 CB2
List of CB2/CB1 affinity ratio values.

>  <compound>
CC(C)(CCCCBr)c1cc(O)c(C2CC(=O)C3CC2C3(C)C)c(O)c1 (single isomer, unassigned; (-)) [Compound N]

>  <CB2/CB1 affinity ratio>
139

$$$$
>  <compound>
CC1=CC(c2c(O)cc(-c3ccc(C(C)(C)C)cc3)cc2O)C2CC1C2(C)C (stereo not shown) [Compound Q]

>  <CB2/CB1 affinity ratio>
53

$$$$
>  <compound>
CC(C)(CCCCC#N)c1cc(O)c([C@H]2CC(=O)[C@H]3C[C@@H]2C3(C)C)c(O)c1 [Compound P]

>  <CB2/CB1 affinity ratio>
146

$$$$

Now for another entry.
compound CC(C)(c1ccc(Cl)cc1)c1cc(O)c(C2CC(=O)C3CC2C3(C)C)c(O)c1 (single isomer, unassigned; (-)) [Compound J] , CB2/CB1 affinity ratio observed: 60

====

# test-target: human CB2 receptor (Homo sapiens)
# experiment: biochemical
# Assay type: binding
# Design: purchased Perkin Elmer/NEN; host or cells: CHO cells, stably transfected (membranes)
# protocol-conditions: displacement of [3H]WIN 55212-2, hCB2 CHO membranes
reported-endpoint: IC50 (nM)
Value expressed in nM; do not type the unit.

>  <molecule>
CCCCCCC(C)(C)c1cc(O)c(C2CC(=O)C3CC2C3(C)C)c(O)c1 (single isomer, unassigned; (-)) [Compound A]

>  <test-target>
human CB2 receptor (Homo sapiens)

>  <unit-label>
nM

>  <IC50>
1

$$$$
>  <molecule>
C#CCCCCC(C)(C)c1cc(O)c([C@H]2CC(=O)[C@H]3C[C@@H]2C3(C)C)c(O)c1 [Compound F]

>  <test-target>
human CB2 receptor (Homo sapiens)

>  <unit-label>
nM

>  <IC50>
0.344

$$$$
>  <molecule>
CCC(C)(CC)c1cc(O)c(C2CC(=O)C3CC2C3(C)C)c(O)c1 (single isomer, unassigned; (-)) [Compound M]

>  <test-target>
human CB2 receptor (Homo sapiens)

>  <unit-label>
nM

>  <IC50>
40.8

$$$$
>  <molecule>
CCCCCCC(C)(C)c1cc(O)c(C2CC(=O)[C@H]3C[C@@H]2C3(C)C)c(OC(=O)/C=C/C(=O)O)c1 (single isomer, unassigned; (-)) [Compound Z]

>  <test-target>
human CB2 receptor (Homo sapiens)

>  <unit-label>
nM

>  <IC50>
1.2

$$$$
>  <molecule>
CCCCCCC(C)(C)c1cc(O)c([C@H]2C/C(=N/O)[C@H]3C[C@@H]2C3(C)C)c(O)c1 [Compound D]

>  <test-target>
human CB2 receptor (Homo sapiens)

>  <unit-label>
nM

>  <IC50>
3.4

$$$$
>  <molecule>
CC(C)(c1ccc(Cl)cc1)c1cc(O)c(C2CC(=O)C3CC2C3(C)C)c(O)c1 (single isomer, unassigned; (-)) [Compound J]

>  <test-target>
human CB2 receptor (Homo sapiens)

>  <unit-label>
nM

>  <IC50>
11

$$$$

molecule CCCCCCC(C)(C)c1cc(OC)c(C2CC(=O)C3CC2C3(C)C)c(OC)c1 (single isomer, unassigned; (-)) [Compound B] , IC50 observed: 45

====

List of log10 of IC50 values.
# test-target: human CB1 receptor (Homo sapiens, UniProt P21554)
# Construct: purchased Perkin Elmer/NEN; host or cells: HEK-293 cells, stably transfected (membranes)
# Sequence (P21554 whole entry): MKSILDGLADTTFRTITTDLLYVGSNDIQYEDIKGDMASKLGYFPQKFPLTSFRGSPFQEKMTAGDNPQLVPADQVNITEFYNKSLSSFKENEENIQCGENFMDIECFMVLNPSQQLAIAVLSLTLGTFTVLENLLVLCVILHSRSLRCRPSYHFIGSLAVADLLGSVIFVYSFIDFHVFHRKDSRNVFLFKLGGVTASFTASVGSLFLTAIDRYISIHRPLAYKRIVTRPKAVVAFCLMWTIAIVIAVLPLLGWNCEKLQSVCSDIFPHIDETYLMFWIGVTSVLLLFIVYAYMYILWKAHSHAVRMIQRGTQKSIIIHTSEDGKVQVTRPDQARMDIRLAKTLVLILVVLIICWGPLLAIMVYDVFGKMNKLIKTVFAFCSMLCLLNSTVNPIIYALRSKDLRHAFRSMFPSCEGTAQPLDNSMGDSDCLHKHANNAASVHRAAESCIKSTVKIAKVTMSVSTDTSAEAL
# experiment: biochemical
# Format: binding
# protocol-conditions: displacement of [3H]CP55940, hCB1 HEK-293 membranes; read-out: CB1 IC50
Hello, just confirming the data are log10 of IC50 with units of nM.

>  <molecule>
CCCCCCC(C)(C)c1cc(O)c(C2CC(=O)[C@H]3C[C@@H]2C3(C)C)c(OC(=O)/C=C/C(=O)O)c1 (single isomer, unassigned; (-))

>  <log10 of IC50>
2.91

$$$$
>  <molecule>
CCCCC(C)(C)c1cc(O)c(C2CC(=O)C3CC2C3(C)C)c(O)c1 (single isomer, unassigned; (-))

>  <log10 of IC50>
2.65

$$$$
>  <molecule>
CCCCC(C)(C)c1cc(O)c(C2C=C(COC(=O)C(C)(C)C)[C@H]3C[C@@H]2C3(C)C)c(O)c1 (stereo partly shown)

>  <log10 of IC50>
2.60

$$$$
>  <molecule>
CC(C)(CCCCBr)c1cc(O)c(C2CC(=O)C3CC2C3(C)C)c(O)c1 (single isomer, unassigned; (-))

>  <log10 of IC50>
1.70

$$$$
>  <molecule>
CCCCCCC(C)(C)c1cc(O)c(C2CC(=O)C3CC2C3(C)C)c(O)c1 (single isomer, unassigned; (-))

>  <log10 of IC50>
1.44

$$$$

Lab entry: human CB1 receptor (Homo sapiens, UniProt P21554) assay, molecule CC(C)(CCc1ccccc1)c1cc(O)c(C2CC(=O)C3CC2C3(C)C)c(O)c1 (stereo not shown) , log10 of IC50 = 2.75

Lab entry: human CB1 receptor (Homo sapiens, UniProt P21554) assay, molecule CCCCCCC(C)(C)c1cc(O)c(C2CC(O)C3CC2C3(C)C)c(O)c1 (single isomer, unassigned; (-)) , log10 of IC50 = 1.49

====

# test-target: human CB2 receptor (Homo sapiens, UniProt P34972)
# Sequence (P34972 whole entry): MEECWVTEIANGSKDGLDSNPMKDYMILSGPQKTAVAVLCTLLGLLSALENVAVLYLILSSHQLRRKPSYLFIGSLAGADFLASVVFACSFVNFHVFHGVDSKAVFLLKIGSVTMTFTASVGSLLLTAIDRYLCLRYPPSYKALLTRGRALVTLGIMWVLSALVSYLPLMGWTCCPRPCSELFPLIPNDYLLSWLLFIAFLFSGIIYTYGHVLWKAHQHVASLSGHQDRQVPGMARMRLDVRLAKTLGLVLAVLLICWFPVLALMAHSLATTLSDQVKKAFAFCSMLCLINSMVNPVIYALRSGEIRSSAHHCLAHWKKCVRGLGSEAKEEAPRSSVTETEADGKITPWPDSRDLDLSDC
# experiment: Adenylylcyclase assay: forskolin-activated cAMP in CB2 transfected HEK-293 cells
# Format: cell-based
# protocol-conditions: CB2 receptor transfected HEK-293, 1 μM forskolin; read-out: IC50 inhibition of cAMP level
reported-endpoint: IC50

A selection of reference data follows.
>  <compound>
CCCCCCC(C)(C)c1cc(O)c([C@H]2CC(=O)[C@H]3C[C@@H]2C3(C)C)c(OC(=O)CCC(=O)O)c1 [Compound R]

>  <reported-endpoint>
IC50

>  <result>
0.47 nM

$$$$
>  <compound>
CCCCCCC(C)(C)c1cc(OC(=O)CCC(=O)O)c([C@H]2CC(=O)[C@H]3C[C@@H]2C3(C)C)c(OC(=O)CCC(=O)O)c1 [Compound S]

>  <reported-endpoint>
IC50

>  <result>
0.16 nM

$$$$

Now for another entry.
Lab entry: human CB2 receptor (Homo sapiens, UniProt P34972) assay, compound CCCCC(C)(C)c1cc(O)c(C2CC(=O)C3CC2C3(C)C)c(OC(=O)CCC(=O)O)c1 (single isomer, unassigned; (-)) [Compound Y] , IC50 = 1.13 nM
